Test system: TLR2 induced IL-6 in peripheral blood mononuclear cells (PBMCs)
Experiment: PBMC TLR2 Induced IL-6 Assay
Format: cell-based, human
Settings: Homo sapiens, PBMC, 5 h, human PBMCs, 10 μg/ml lipoteichoic acid for 5 hours, IL-6 by ELISA; value without asterisk; read-out: Cell IC50
MEASURED_QUANTITY: pIC50
API: returns pIC50 as number; meaning -log10 of concentration in mol/L.

Worked examples, 3 compounds total:
>  <COMPOUND>
CC(C)(F)CNc1cc(Nc2ccn3ncc(F)c3c2)ncc1C(=O)NC[C@@H](F)C(C)(C)O

>  <pIC50>
6.72

$$$$
>  <COMPOUND>
Cc1cc2nc(Nc3cc(NC4CCC(F)C4)c(C(=O)NC[C@@H](F)C(C)(C)O)cn3)ccn2n1 (single isomer, unassigned) [Example 381]

>  <pIC50>
6.42

$$$$
>  <COMPOUND>
CC(C)(O)[C@H](F)CNC(=O)c1cnc(Nc2ccc3ncsc3c2)cc1NC(C1CC1)C1CC1

>  <pIC50>
6.24

$$$$

// pIC50 value for CC(C)(O)[C@H](F)CNC(=O)c1cnc(Nc2ccc3ncsc3c2)cc1Nc1ccc(OC(F)F)cc1 : 6.48
